Method: Ratio of fAUC (0 to 8 hrs) in epithelial lining fluid to plasma of Staphylococcus aureus-infected BALB/c mouse at 25 mg/kg, sc administered as single dose
Assay type: ADME, organism-based
Set-up: dose 25 mg/kg, route subcutaneous
Reported metric: Kp uu
Give the figure by itself; no unit, no explanation.

// fetch Kp uu given entry CN(C)c1cc(NC(=O)CNC(C)(C)C)c(O)c2c1C[C@H]1C[C@H]3[C@H](N(C)C)C(O)=C(C(N)=O)C(=O)[C@@]3(O)C(O)=C1C2=O 15.1

---

Method: AUC (0 to 24 hrs) in BALB/c mouse infected with Staphylococcus aureus at 50 mg/kg, sc administered as single dose
Format: ADME, organism-based
Design: time < 24 hr, dose 50 mg/kg, route subcutaneous
Setup conditions: plasma
Reported metric: AUC(0-t) at 24 h (ng·h/mL)
Answer format: numeric, ng·h/mL implied, no suffix.

For the molecule CN(C)c1cc(NC(=O)CNC(C)(C)C)c(O)c2c1C[C@H]1C[C@H]3[C@H](N(C)C)C(O)=C(C(N)=O)C(=O)[C@@]3(O)C(O)=C1C2=O , report AUC(0-t) at 24 h. 72500

---

Method: Half life in BALB/c mouse infected with Staphylococcus aureus at 25 mg/kg, sc administered as single dose
Format: ADME, organism-based
Design: dose 25 mg/kg, route subcutaneous
Setup conditions: in vivo
Reported metric: half-life (h)
The response must be a number in h with no trailing unit.

In one line, give reported half-life of the entry CN(C)c1cc(NC(=O)CNC(C)(C)C)c(O)c2c1C[C@H]1C[C@H]3[C@H](N(C)C)C(O)=C(C(N)=O)C(=O)[C@@]3(O)C(O)=C1C2=O [TIGECYCLINE] . 12.4

---

Method: Protein binding in Staphylococcus aureus-infected BALB/c mouse serum at 6.25 mg/kg, sc administered as single dose
Format: ADME, organism-based
Design: dose 6.25 mg/kg, route subcutaneous
Setup conditions: read-out: PB (converted)
Reported metric: fraction unbound
Write no unit; give the number alone.

// Input: CN(C)c1cc(NC(=O)CNC(C)(C)C)c(O)c2c1C[C@H]1C[C@H]3[C@H](N(C)C)C(O)=C(C(N)=O)C(=O)[C@@]3(O)C(O)=C1C2=O [TIGECYCLINE] . Output its fraction unbound only. 0.15

---

Method: Protein binding in Staphylococcus aureus-infected BALB/c mouse serum at 25 mg/kg, sc administered as single dose
Type: ADME, organism-based
Parameters: dose 25 mg/kg, route subcutaneous
Setup conditions: read-out: PB (converted)
Reported metric: fraction unbound
// return just the number, without any unit appended

Give recorded fraction unbound. CN(C)c1cc(NC(=O)CNC(C)(C)C)c(O)c2c1C[C@H]1C[C@H]3[C@H](N(C)C)C(O)=C(C(N)=O)C(=O)[C@@]3(O)C(O)=C1C2=O [TIGECYCLINE] 0.063

---

Method: Tmax in BALB/c mouse infected with Staphylococcus aureus at 6.25 mg/kg, sc administered as single dose
Assay type: ADME, organism-based
Design: dose 6.25 mg/kg, route subcutaneous
Setup conditions: in vivo
Reported metric: Tmax
Param answer (str): number followed by unit.

Please indicate Tmax recorded for CN(C)c1cc(NC(=O)CNC(C)(C)C)c(O)c2c1C[C@H]1C[C@H]3[C@H](N(C)C)C(O)=C(C(N)=O)C(=O)[C@@]3(O)C(O)=C1C2=O [TIGECYCLINE] 20.4 min
